Tested on: 12 predominant HLA II molecules
RUN_DESCRIPTION: HLA II/peptide binding assays, count over the panel
Set-up: species or system human
RUN_PARAMETERS: relative activity of less than 100 characterizes the active peptides
Quick reference for Total (number of the 12 predominant HLA II molecules bound) among some substances
No unit in the answer, only the number.

• Q T Q R I R C R V P C N W K K (QTQRIRCRVPCNWKK) [MDK 64-78] = 1
• C K Y K F E N W G A C D G G T (CKYKFENWGACDGGT) [MDK 84-98] = 2
• G T K V R Q G T L K K A R Y N (GTKVRQGTLKKARYN) [MDK 99-113] = 1
• L T L L A L L A L T S A V A K (LTLLALLALTSAVAK; MDK 9-23 peptide) = 8

Problem: For the substance shown here, K D K V K K G G P G S E C A E (KDKVKKGGPGSECAE) [MDK 25-39] , give the reported Total (number of the 12 predominant HLA II molecules bound).
Solution: 0

Problem: Now the substance L L A L T S A V A K K K D K V (LLALTSAVAKKKDKV; MDK 14-28 peptide)
Solution: 4

Problem: Now the substance C R V P C N W K K E F G A D C (CRVPCNWKKEFGADC) [MDK 70-84]
Solution: 2

Problem: Now the substance C N W K K E F G A D C K Y K F (CNWKKEFGADCKYKF) [MDK 74-88]
Solution: 1

Problem: Now the substance G T L K K A R Y N A Q C Q E T (GTLKKARYNAQCQET) [MDK 105-119]
Solution: 1

---

TESTED_ON: HLA-DR15 (DRB1*1501) (Homo sapiens, UniProt P01903+P01911)
RUN_DESCRIPTION: HLA II/peptide competition binding assay, DR15
RUN_PARAMETERS: ratio of IC50 of competitor peptide to IC50 of reference peptide; mean of at least two independent experiments; less than 100 = active
OUTCOME_MEASURE: Relative binding activity, DR15

- L L A L T S A V A K K K D K V (LLALTSAVAKKKDKV; MDK 14-28 peptide): >529
- C R V P C N W K K E F G A D C (CRVPCNWKKEFGADC) [MDK 70-84]: >529
- E N W G A C D G G T G T K V R (ENWGACDGGTGTKVR) [MDK 89-103]: >529
- C K Y K F E N W G A C D G G T (CKYKFENWGACDGGT) [MDK 84-98]: 141
- G T K V R Q G T L K K A R Y N (GTKVRQGTLKKARYN) [MDK 99-113]: >529

Please find the next substance below.
Problem: Observed Relative binding activity, DR15 on HLA-DR15 (DRB1*1501) (Homo sapiens, UniProt P01903+P01911) for M Q H R G F L L L T L L A L L (MQHRGFLLLTLLALL; MDK 1-15 peptide) , please.
Solution: 211

---

Quick reference for Relative binding activity, DR15 among some substances
TESTED_ON: HLA-DR15 (DRB1*1501) (Homo sapiens, UniProt P01903+P01911)
RUN_DESCRIPTION: HLA II/peptide competition binding assay, DR15
RUN_PARAMETERS: ratio of IC50 of competitor peptide to IC50 of reference peptide; mean of at least two independent experiments; less than 100 = active

Problem: For the substance shown here, K E F G A D C K Y K F E N W G (KEFGADCKYKFENWG) [MDK 78-92] , give the reported Relative binding activity, DR15.
Solution: 216

Problem: Now the substance C N W K K E F G A D C K Y K F (CNWKKEFGADCKYKF) [MDK 74-88]
Solution: >529

Problem: Now the substance Q T Q R I R C R V P C N W K K (QTQRIRCRVPCNWKK) [MDK 64-78]
Solution: >529
